Tested on: Human colon carcinoma HCT-116 cells
assay: cells
test-conditions: HCT-116, 72 h, read-out: Cytotoxicity IC50, HCT-116
value-kind: IC50 (nM)

[
  {
    "given-smiles": "O=C(Nc1cc(CO)cc(Nc2c3ccccc3nc3ccccc23)c1)Oc1ccc(N(CCCl)CCCl)cc1",
    "output-unit": "nM",
    "measured-number": 570
  },
  {
    "given-smiles": "O=C(NNc1cc(-c2ccccc2)nc2ccccc12)Nc1ccc(N(CCCl)CCCl)cc1",
    "output-unit": "nM",
    "measured-number": 1260
  },
  {
    "given-smiles": "Cc1ccc(Nc2c3ccccc3nc3c(C)cccc23)cc1NC(=O)Nc1ccc(N(CCCl)CCCl)cc1",
    "output-unit": "nM",
    "measured-number": 440
  }
]

====

Test system: CCRF-CEM human lymphoblastic leukemia cells
assay: cells
test-conditions: 72 h, read-out: Cytotoxicity IC50, CCRF-CEM
# strict inequality: IC50 < 90 nM yields met, everything else yields not met

[
  {
    "given-smiles": "Cc1ccc(Nc2c3ccccc3nc3c(C)cccc23)cc1NC(=O)Oc1ccc(N(CCCl)CCCl)cc1",
    "label-value": "not met"
  },
  {
    "given-smiles": "Cc1cc(NNC(=O)Nc2ccc(N(CCCl)CCCl)cc2)c2ccccc2n1",
    "label-value": "not met"
  },
  {
    "given-smiles": "Cc1cccc2c(Nc3cc(CO)cc(NC(=O)Oc4ccc(N(CCCl)CCCl)cc4)c3)c3ccccc3nc12",
    "label-value": "met"
  },
  {
    "given-smiles": "Cc1ccc(Nc2c3ccccc3nc3ccccc23)cc1NC(=O)Oc1ccc(N(CCCl)CCCl)cc1",
    "label-value": "met"
  },
  {
    "given-smiles": "Cc1ccc(Nc2c3ccccc3nc3c(C)cccc23)cc1NC(=O)Nc1ccc(N(CCCl)CCCl)cc1",
    "label-value": "met"
  },
  {
    "given-smiles": "O=C(Nc1cc(CO)cc(Nc2c3ccccc3nc3ccccc23)c1)Oc1ccc(N(CCCl)CCCl)cc1",
    "label-value": "met"
  },
  {
    "given-smiles": "Cc1cc(NC(=O)Nc2ccc(N(CCCl)CCCl)cc2)cc(Nc2c3ccccc3nc3ccccc23)c1",
    "label-value": "not met"
  },
  {
    "given-smiles": "Cc1cc(NC(=O)Nc2ccc(N(CCCl)CCCl)cc2)c2cc(N(C)C)ccc2n1",
    "label-value": "not met"
  }
]
